Hello, the source for this data is PubChem BioAssay, in case you need it.

# assayProcedure: growth suppression of yeast trafficking mutant, preliminary HTS, modulators of trafficking downstream of Golgi apparatus project, 1536-format plate, OD 615 nm (AID 637)
# conditionNotes: yeast transport mutant growth, absorbance 615 nm, 18 h; active compounds read high
Activity calls are given as the source filed them. Cut-off read from the data, not from the text of the source: active = inhibition above about 30%; inactive = the rest.
recordedMetric: inhibition

{"columns": ["molecule", "result"],
 "data": [
  ["Cc1cc(NC(=O)CCC(=O)N(CCc2ccccc2)C(C(=O)NC2CCCC2)c2ccco2)no1 (stereo unspecified)", "-2.13% (inactive)"],
  ["CC1CCC(C(=O)NC(C(=O)NCCN2CCC(C)CC2)C(C)C)CC1 (stereo unspecified)", "13.9% (inactive)"],
  ["Cc1ccc(CNC(=O)C2CCN(S(=O)(=O)c3c(C)noc3C)CC2)cc1", "-4.44% (inactive)"],
  ["CC(C)C(=O)Nc1ccc2c(c1)nc1n2CCSC1", "-6.83% (inactive)"],
  ["Cc1ccc(-c2cc(C(=O)NCCN3CCOCC3)no2)cc1", "-6.83% (inactive)"]
]}

Any idea what its inhibition is? The molecule is "CCc1nc(N)c(C#N)c(-c2ccncc2)c1C"
-0.82% (inactive)

Dear colleague, I am looking for the recorded inhibition of the following molecule: "CCC(=O)Nc1c2c(nn1-c1ccccc1C)CSC2"
-3.65% (inactive)

Reported inhibition for CC(C)=CCCC(C)N(C=O)C(C)CCC=C(C)C (stereo unspecified) : what is it?
-2.7% (inactive)

Quick one: inhibition for OC(CN1CCN(c2ccccn2)CC1)Cn1c2ccccc2c2ccccc21 (stereo unspecified) ?
6.5% (inactive)

# get_value(readout='inhibition', item= "CCOC(=O)C1CCN(c2c(NCCCN(CC)c3ccccc3)c(=O)c2=O)CC1" )
0.18% (inactive)

inhibition for "Cc1ccc(S(=O)(=O)N(CCO)c2cc3c(s2)CCCC3)cc1" ?
-7.5% (inactive)
